Each entry below carries its reported pIC50.
- tested_target: FXR (Homo sapiens)
- Construct: 5 μL of 20 nM FXR-LBD Complete Coregulator buffer G; purchased ThermoFisher PV4833
- Sequence (Q96RI1 262-486 limits assumed): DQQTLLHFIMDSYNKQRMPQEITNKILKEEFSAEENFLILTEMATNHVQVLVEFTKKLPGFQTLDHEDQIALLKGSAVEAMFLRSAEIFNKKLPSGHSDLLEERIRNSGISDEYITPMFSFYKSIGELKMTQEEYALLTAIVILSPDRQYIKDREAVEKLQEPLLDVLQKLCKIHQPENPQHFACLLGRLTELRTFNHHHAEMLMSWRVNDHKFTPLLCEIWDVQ
- protocol_text: FXR antagonist screening by TR-FRET (LanthaScreen TR-FRET FXR co-activation assay kit)
- Format: biochemical
- condition_label: Table 1.2, FXR antagonistic activity; TR-FRET with CDCA; geometric means of at least two independent runs
pIC50: −log10 of the molar value.
assay_metric: pIC50

INSERT INTO measurements (molecule, assay_metric, value_observed) VALUES
  ('Cc1c(C(=O)O)sc2ccc(S(=O)(=O)N(Cc3ccccc3)c3ccccc3N3CCN(C(=O)c4sccc4Br)CC3)cc12', 'pIC50', '5.00 to 7.00'),
  ('CCOC(=O)c1oc2ccc(S(=O)(=O)N(CCc3ccccc3)c3ccccc3N3CCN(C(=O)c4c[nH]cn4)CC3)cc2c1C', 'pIC50', '4.00 to 4.30'),
  ('Cc1c(C(=O)O)oc2ccc(S(=O)(=O)N(CCc3ccccc3)c3ccccc3N3CCN(C(=O)c4ccc(Cl)s4)CC3)cc12', 'pIC50', '5.00 to 7.00'),
  ('Cc1c(C(=O)O)oc2ccc(S(=O)(=O)N(CCc3ccccc3)c3ccccc3N3CCN(C(=O)c4sccc4Br)C[C@H]3C)cc12', 'pIC50', '5.00 to 7.00'),
  ('Cc1c(C(=O)O)oc2ccc(S(=O)(=O)N(CCc3ccccc3)c3ccccc3N3CCN(C(=O)c4sccc4Br)C(C)C3)cc12 (stereo not shown)', 'pIC50', '5.00 to 7.00'),
  ('CCOC(=O)c1cc2ccc(S(=O)(=O)N(CCc3ccccc3)c3ccccc3N3CCN(C(=O)c4sccc4Br)CC3)cc2o1', 'pIC50', '4.00 to 4.30'),
  ('CCOC(=O)c1sc2ccc(S(=O)(=O)N(CCc3ccc(C(=O)OC)cc3)c3ccccc3N3CCN(C(=O)c4sccc4Br)CC3)cc2c1C', 'pIC50', '4.00 to 4.30'),
  ('Cc1c(C(=O)O)oc2ccc(S(=O)(=O)N(CCc3ccccc3)c3ccccc3N3C4CCC3CN(C(=O)c3sccc3Br)C4)cc12', 'pIC50', '5.00 to 7.00'),
  ('Cc1c(C(=O)O)oc2ccc(S(=O)(=O)N(CCc3ccccc3)c3ccccc3N3CCN(C(=O)c4cncs4)CC3)cc12', 'pIC50', '5.00 to 7.00'),
  ('Cc1cccc(C(=O)N2CCN(c3ccccc3N(CCc3ccccc3)S(=O)(=O)c3ccc4oc(C(=O)O)c(C)c4c3)CC2)c1', 'pIC50', '5.00 to 7.00'),
  ('CCOC(=O)c1oc2ccc(S(=O)(=O)N(CCc3ccccc3)c3ccccc3N3CCC(NC(=O)c4sccc4Br)CC3)cc2c1C', 'pIC50', '4.00 to 4.30'),
  ('Cc1c(C(=O)O)oc2ccc(S(=O)(=O)N(CCc3ccccc3)c3ccccc3N3CCCN(C(=O)c4sccc4Br)CC3)cc12', 'pIC50', '5.00 to 7.00'),
  ('CCOC(=O)c1oc2ccc(S(=O)(=O)N(CCc3ccccc3)c3ccccc3N3CCN(C(=O)c4ccccc4C)CC3)cc2c1C', 'pIC50', '4.00 to 4.30');
